- Test system: UACC-62
- assay.info: NCI tumour cell line growth inhibition, 48 h
Active and inactive are the calls of the source. No stated cut-off is given here; in the data, active = GI50 up to about 1.1 µM and inactive = higher.
Pick one and only one: active, inactive

compound	class.name
O=S(O)CCCCSSCc1ccccc1CSSCCCCS(=O)O	inactive
CN1C(=O)[C@@H]2[C@@H]3c4ccccc4N[C@@H]3c3[nH]c4ccccc4c3[C@@H]2C1=O	inactive
O=C(Nc1ccn(C2CC(I)C(COC(c3ccccc3)(c3ccccc3)c3ccccc3)O2)c(=O)n1)c1ccccc1 (stereo not given)	inactive

Request: Outcome logged for C/C(=N\Nc1nc2ccccc2n1C)c1ccncn1 in this assay:
Response: active

Request: Outcome logged for Nc1ncnc2c1ncn2C1CCC(CP(=O)(O)O)C1 (stereo not given) in this assay:
Response: inactive

###

- Test system: SF-539
- assay.info: NCI tumour cell line growth inhibition, 48 h
Active and inactive are the calls of the source. Cut-off read from the data, not from the text of the source: active = GI50 up to about 1.1 µM and inactive = higher. Numbered stars: 1 amine (or outer) side, 2 acyl side, 3 side chain; on linkers, the order of the positions; unused ones are H or OH. Bridge positions count the residues as written; N and C are the ends. Square brackets hold non-standard residues; d marks the D form. Peptide text beside a SMILES is read from it. X58 = COc1c(N[*:1])cccc1C(=O)O[C@H](C(=O)[C@H](C)C(=O)[*:2])C(C)C; X57 = CC(C)C[C@H](C(=O)[*:2])C(C)C(=O)C1CCCN1[*:1]; NMeY = CN[C@@H](Cc1ccc(O)cc1)C(=O)O; Lac = C[C@H](O)C(=O)O
readout: GI50

compound	GI50
COc1ccc(C[C@H]2C(=O)O[C@H](C)[C@H](NC(=O)[C@@H](CC(C)C)C(C)C(=O)C3CCCN3C(=O)[C@H](C)O)C(=O)Nc3cccc(c3OC)C(=O)O[C@@H](C(C)C)C(=O)[C@H](C)C(=O)N[C@@H](CC(C)C)C(=O)N3CCC[C@H]3C(=O)N2C)cc1 (some centres undefined) (H-[Lac][X57]T[X58]LP[NMeY](Me); ester 3-C)	> 12.5 µM (inactive)
C=C1C[C@@H]2O[C@H]3[C@H]4[C@@H](C[C@@H](C)[C@@H](OC(C)=O)[C@H]42)[C@@H](C)CO[C@@]3(C)[C@H](OC(=O)CCCCCCC)C[C@H]1O	23.4 µM (inactive)
O=C1C=C(OCCCCl)C(=O)c2c(O)ccc(O)c21	1.38 µM (inactive)

Request: Enter measured GI50, system SF-539, for the compound shown: CO[C@]12C[C@@H](CNC(=O)c3cc(Br)c[nH]3)O[C@H]1NC(=O)N2
Response: > 100 µM (inactive)

Request: Enter measured GI50, system SF-539, for the compound shown: C=C(C)[C@@H]1CCc2c(c(C)cc(O)c(=O)c2O)C1
Response: 0.6 µM (active)

Request: Enter measured GI50, system SF-539, for the compound shown: O=c1c2cc(Br)cc(Br)c2nc(CCCl)n1CCO
Response: 81.3 µM (inactive)

Request: Enter measured GI50, system SF-539, for the compound shown: C#CCN(N=O)C(=O)NC(CCCNC(=O)OCc1ccccc1)C(=O)OCc1ccccc1 (centres undefined)
Response: 75.7 µM (inactive)

Request: Enter measured GI50, system SF-539, for the compound shown: O=C(CCCN1CCC2(CC1)CC(=O)N(N1CCOCC1)C2=O)c1ccccc1
Response: > 100 µM (inactive)

Request: Enter measured GI50, system SF-539, for the compound shown: Cn1c(=N)n[n+]([O-])c2ccccc21
Response: 1.99 µM (inactive)
